Collected apparent KD of MS2 coat protein values appear next to each entry.
# Test system: MS2 coat protein
# PROTOCOL TEXT: apparent KD of MS2 coat protein; higher = weaker reporter binding
# DETAILS: Eterna round: R107; input ligand: theophylline 20 uM
RESULT TYPE: apparent KD of MS2 coat protein (nM)

> print(dat)
                              sequence.data  target.or.system                      result.type  obs.value
1  GGACUAACCAGAAGGAGCGACACAGCAGAAACUGCAAAUCCUCCGCACGAGGAUCACCCGUGUCAGGUAGGUCGCUGGUUAGUCG [ArgBX 28]  MS2 coat protein  apparent KD of MS2 coat protein       55.9
2  UCCAUCGGCGGAAGCCGAUGGUUUACAGAAGGAGCGUGGAUUAACACAGGUAGGUCGCUGGACAUGAGGAUCACCCAUGUGAUAG [SSAA #6]  MS2 coat protein  apparent KD of MS2 coat protein        117
3  CGUAGUAUCAGACAUGAGGAUCACCCAUGUCGAGGACCGGUACGGCCGCCACUCGGCAGUUUGCGUCCUCAGGUACUCCAGGUAA [Larirexea]  MS2 coat protein  apparent KD of MS2 coat protein       27.9
4  UAUAUAUAUAUUGAUACCAGCAGAGAAAACGUUUAUCCUAACAUGAGGAUCACCCAUGUAUGCCCUUGGCAGCGGUAUAUAUAUA [8.D]  MS2 coat protein  apparent KD of MS2 coat protein       29.2
5  AAAGAUCGGAAACGAUCGGCGGCUUGGGCGCGAGGACCGGUACGGCCGCCACUCGGGAAACAUGAGGAUCACCCAUGUUGCUAGC [ETA NP+V+V2 #15]  MS2 coat protein  apparent KD of MS2 coat protein       18.4
6  AUUGUGAAGUCGGCCGCCACUGCAUAGUUUAACCACAUGUAACAUGAGGAUCACCCAUGUAAUGACAGGACCGGGACAAUAGUAA [JR_SSTryptoB_Sub023]  MS2 coat protein  apparent KD of MS2 coat protein       41.9
